Test Target: T1, human IL12Rβ1-Fc-Fusion (human, UniProt P42701 24-545)
T1 construct: Captured on an anti-human-Fc chip for SPR; not shown: Fc part of the fusion
Method Notes: SPR (Biacore), IL12Rβ1-Fc fusion captured on anti-human-Fc CM5 chip
Text: For determination of KD values, surface plasmon resonance technology was applied using the Biacore™ technology. Anti-human-Fc-capture CM5 chip (Biacore, Sweden) was used for capturing IL12Rβ1-Fc-Fusion followed by ligand (Fab) injection at different concentrations.
Catalogue of pKd values
pKd (log units): -log10 of the concentration in mol/L.

mAb4 (MOR11878 with IgG1 LALA Fc variant) (antibody, V domains shown, Human IgG1 L234A L235A (LALA), expressed in HKB11 cells) VH: QVQLVESGGGVVQPGRSLRLSCAASGFTFTSYGMSWVRQAPGKGLEWVAGISYDASDTEYADSVKGRFTISRDNSKNTLYLQMNSLRAEDTAVYYCARSPDYIIDYGFDYWGRGTLVTVSS VL: AIQMTQSPSSLSASVGDRVTITCRASQGISSDLAWYQQKPGKAPKLLIYDASSLQSGVPSRFSGSGSGTDFTLTISSLQPEDFATYYCQQYWWYPFTFGQGTKVEIKR: 10.70
mAb10 (MOR11880 with IgG1 LALA Fc variant) (antibody, V domains shown, Human IgG1 L234A L235A (LALA), expressed in HKB11 cells) VH: QVQLVQSGAEVKKPGASVKVSCKASGYTFTGYYMHWVRQAPGQGLEWMGMIGPQHGEAIYAQKFQGRVTMTRDTSISTAYMELSRLRSDDTAVYYCARESTDSDESPFDYWGQGTLVTVSS VL: SYELTQPLSVSVALGQTARITCSGDNIRSYYVSWYQQKPGQAPVLVIYDDSDRPSGIPERFSGSNSGNTATLTISRAQAGDEADYYCQSYGSHSNFVVFGGGTKLTVLG: 10.40

pKd measured on mAb1 (MOR11873 with IgG1 LALA Fc variant) (antibody, V domains shown, Human IgG1 L234A L235A (LALA), expressed in HKB11 cells) VH: QVQLVESGGGVVQPGRSLRLSCAASGFTFTSYGMSWVRQAPGKGLEWVAGISYSGSDTEYADSVKGRFTISRDNSKNTLYLQMNSLRAEDTAVYYCARSPDYIIDYGFDYWGRGTLVTVSS VL: AIQMTQSPSSLSASVGDRVTITCRASQGISSDLAWYQQKPGKAPKLLIYDASSLQSGVPSRFSGSGSGTDFTLTISSLQPEDFATYYCQQYWIYPFTFGQGTKVEIKR = 10.40

Lab note: measured pKd of mAb7 (MOR11879 with IgG1 LALA Fc variant) (antibody, V domains shown, Human IgG1 L234A L235A (LALA), expressed in HKB11 cells) VH: QVQLVQSGAEVKKPGASVKVSCKASGYTFTGYYMHWVRQAPGQGLEWMGMIGPQHGEAIYAQKFQGRVTMTRDTSISTAYMELSRLRSEDTAVYYCARESTDSDESPFDYWGQGTLVTVSS VL: DIELTQPPSVSVSPGQTASITCSGDNIRSYYVSWYQQKPGQAPVLVIYDDSDRPSGIPERFSGSNSGNTATLTISGTQAEDEADYYCQSYGSHSNFVVFGGGTKLTVLG was 10.40

Data credit: patent US20120082681A1
